B1: FAM189A2 (parent)
chain: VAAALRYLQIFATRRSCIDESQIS

Variants of: B1
Assay: protein stability index of a GFP-peptide fusion (GPS, HEK-293T) (PSI 1-6); higher = more stable;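 further: lentivirally expressed fusions sorted by FACS into six bins by GFP to DsRed ratio, PSI derived from sequencing read proportions per bin multiplied by bin number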
Conditions: c terminus: a fixed tail appended
# label = satisfied if protein stability index >= 2 else not satisfied

R15I    not satisfied
R14A    not satisfied
D19F    not satisfied
R6Y    satisfied

Given the entry "S24K" , answer whether its protein stability index meets or surpasses 2.
not satisfied

Same question for "A12R" please.
satisfied

Same question for "Q9K" please.
not satisfied

Same question for "L5G" please.
satisfied

Same question for "Q9D" please.
satisfied

Same question for "T13Q" please.
satisfied

Same question for "S16W" please.
satisfied

Same question for "A4P" please.
satisfied

Same question for "Q22C" please.
satisfied

Same question for "S24I" please.
satisfied

Same question for "T13M" please.
satisfied

Data provenance is the supplement of paper PMC10567573.
